Assignment: determine reported CLhep predicted for the given compounds.
measurement description: Clearance in human liver microsomes
The answer is to be given in mL/min/kg; state only the numeric part.

Tell me its CLhep predicted given Cc1ccoc1C(=O)Nc1ccc(N2C(=O)c3cccc(F)c3C2=O)cc1F as the entry.
4.48

Give CLhep predicted for Cc1ccoc1C(=O)Nc1ccc(N2C(=O)c3cccc(C)c3C2=O)cc1F
6.64

Write down CLhep predicted measured for item Cc1ccoc1C(=O)Nc1ccc(N2C(=O)c3ccc(Cl)cc3C2=O)cc1F
11.9

Answer with the recorded CLhep predicted for the compound listed here: Cc1ccoc1C(=O)Nc1ccc(N2C(=O)c3ccc(F)cc3C2=O)cc1F
6.72

Give a short answer stating reported CLhep predicted for Cc1ccc2c(c1)C(=O)N(c1ccc(NC(=O)c3occc3C)c(F)c1)C2=O .
4.4
